# Tested on: HCV replicon cells
# protocol: Cell-based HCV replicon assay (replicon RNA level by real time PCR, Taqman)
# condition_label: Hepatitis C virus, 72 h, HCV replicon cells, harvested day 3, replicon RNA by real time PCR; reported as range class; read-out: EC90 (μM) range
# Protocol: Assays Cell-Based HCV Replicon Assay To measure cell-based anti-HCV activity of the compounds of the present invention, replicon cells were seeded at 5000 cells/well in 96-well collagen I-coated Nunc plates in the presence of the compound of the invention. […] The replicon RNA level was measured using real time PCR (Taqman assay). […]
Quick list: EC90 per entry.

Answered examples (8):
compound	EC90
NC(=O)c1ccc2cc(-c3c(Cl)nc(N)nc3N[C@@H]3C[C@H](CO)[C@@H](O)[C@H]3O)oc2c1 [Example 178]	> 5 µM
Nc1nc(N[C@@H]2C[C@H](CO)[C@@H](O)[C@H]2O)c(-c2ncccn2)c(-c2ncccn2)n1 [Example 160]	> 5 µM
Nc1nc(Cl)c(-c2nccs2)c(N[C@@H]2C[C@H](CO)[C@@H](O)[C@H]2O)n1 [Example 104]	> 5 µM
CN(C)c1ccc2sc(-c3c(Cl)nc(N(C)C)nc3N[C@@H]3C[C@H](CO)[C@@H](O)[C@H]3O)nc2c1 [Example 204]	> 5 µM
Nc1nc(Cl)c(-c2nc3ccccc3o2)c(N[C@@H]2C[C@H](CO)[C@@H](O)[C@H]2O)n1 [Example 109]	< 0.5 µM
COCCNc1nc(Cl)c(-c2nc3ccccc3s2)c(N[C@@H]2C[C@H](CO)[C@@H](O)[C@H]2O)n1 [Example 201]	< 0.5 µM
Nc1nc(Cl)c(-c2cc3cc(F)ccc3o2)c(N[C@@H]2C[C@H](CO)[C@@H](O)[C@H]2O)n1 [Example 164]	> 5 µM
CN(C)C(=O)c1ccc2cc(-c3c(Cl)nc(N)nc3N[C@@H]3C[C@H](CO)[C@@H](O)[C@H]3O)oc2c1 [Example 176]	> 5 µM

Request: # return recorded EC90 for input Nc1nc(Cl)c(-c2ncco2)c(N[C@@H]2C[C@H](CO)[C@@H](O)[C@H]2O)n1 [Example 106]
Result: > 5 µM

Request: Tell me its EC90 given Nc1nc(Cl)c(-c2cc3ccc(C(=O)N4CCOCC4)cc3o2)c(N[C@@H]2C[C@H](CO)[C@@H](O)[C@H]2O)n1 [Example 179] as the entry.
Result: > 5 µM

Request: Give recorded EC90. NC(=O)c1ccc2oc(-c3c(Cl)nc(N)nc3N[C@@H]3C[C@H](CO)[C@@H](O)[C@H]3O)cc2c1 [Example 173]
Result: > 5 µM

Request: Supply measured EC90 of Cc1nc(NCCO)nc(N[C@@H]2C[C@H](CO)[C@@H](O)[C@H]2O)c1-c1nc2ccccc2s1 [Example 210] in your reply.
Result: < 0.5 µM

Request: Answer with the recorded EC90 for the compound listed here: COc1cc2cc(-c3c(Cl)nc(N)nc3N[C@@H]3C[C@H](CO)[C@@H](O)[C@H]3O)oc2c(C)n1 [Example 14]
Result: < 0.5 µM

Request: Answer with the recorded EC90 for the compound listed here: Nc1nc(Cl)c(-c2ccccn2)c(N[C@@H]2C[C@H](CO)[C@@H](O)[C@H]2O)n1 [Example 157]
Result: > 5 µM

Request: Provide only the value of recorded EC90 for COC[C@H]1C[C@@H](Nc2nc(N(C)C)nc(Cl)c2-c2nc3ccccc3s2)[C@H](O)[C@@H]1O [Example 121]
Result: < 0.5 µM
